system: U2OS; experiment: cells; set-up: species or system RPE-1, HCT116, SH-SY5Y; details: Homo sapiens, 48 h, read-out: U2OS EC50
pEC50: −log10 of the molar value.
EXPERIMENTAL ENDPOINT: pEC50

Record request: pEC50 value, item Cc1ccc(NC(=O)Nc2ccc(Cc3ccncc3)cc2)cc1C
5.00

A = O=C(Nc1ccc(Cc2ccncc2)cc1)Nc1cccc2ccccc12
B = Cc1cccc(OCC(=O)Nc2ccc3oc(-c4cccnc4)nc3c2)c1C
C = N#Cc1ccc2ncnc(NCCc3ccccc3)c2c1
Ascending by pEC50, please. Enter labels, ranked according to the request.
C, A, B
(C: 4.32, A: 4.85, B: 5.05)

###

biological target: HASPIN (Homo sapiens); assay: biochemical; conditions: read-out: % of control remaining
Sequence (Q8TF76 whole entry): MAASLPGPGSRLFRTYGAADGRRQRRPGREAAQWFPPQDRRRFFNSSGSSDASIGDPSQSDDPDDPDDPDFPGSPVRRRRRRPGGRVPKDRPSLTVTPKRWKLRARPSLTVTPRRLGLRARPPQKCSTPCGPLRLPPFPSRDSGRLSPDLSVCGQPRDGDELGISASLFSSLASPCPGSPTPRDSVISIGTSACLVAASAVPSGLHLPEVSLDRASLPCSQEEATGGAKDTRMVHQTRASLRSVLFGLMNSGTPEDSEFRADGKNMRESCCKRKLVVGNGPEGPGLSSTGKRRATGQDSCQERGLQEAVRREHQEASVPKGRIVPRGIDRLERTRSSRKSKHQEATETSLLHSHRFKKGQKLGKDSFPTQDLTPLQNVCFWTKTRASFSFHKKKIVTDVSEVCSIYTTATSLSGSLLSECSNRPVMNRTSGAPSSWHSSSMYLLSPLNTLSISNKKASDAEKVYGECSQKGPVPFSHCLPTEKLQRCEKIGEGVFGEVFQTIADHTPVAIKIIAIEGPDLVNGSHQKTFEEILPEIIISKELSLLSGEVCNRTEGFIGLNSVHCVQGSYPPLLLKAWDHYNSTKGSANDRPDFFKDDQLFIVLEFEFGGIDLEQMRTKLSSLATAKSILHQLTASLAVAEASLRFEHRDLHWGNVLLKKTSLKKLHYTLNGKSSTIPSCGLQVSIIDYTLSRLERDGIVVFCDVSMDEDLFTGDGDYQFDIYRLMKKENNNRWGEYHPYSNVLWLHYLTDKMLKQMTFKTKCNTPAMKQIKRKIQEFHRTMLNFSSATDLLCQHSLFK
EXPERIMENTAL ENDPOINT: remaining activity at 10 µM (%)

Requested read-out remaining activity at 10 µM, target or system HASPIN (Homo sapiens), entry Cc1ccc(NC(=O)Nc2ccc(Cc3ccncc3)cc2)cc1C
111

Another molecule: O=C(NC[C@H]1CC(=O)N(c2ccc3c(c2)OCO3)C1)Nc1cccc(C(F)(F)F)c1
123

Another molecule: Cc1cccc(OCC(=O)Nc2ccc3oc(-c4cccnc4)nc3c2)c1C
144

Another molecule: O=C(NC[C@@H]1Cc2cc(-c3cncnc3)ccc2O1)c1scc2c1CCCC2
118

Another molecule: O=C(Nc1ccc(Cc2ccncc2)cc1)Nc1cccc2ccccc12
96

Another molecule: O=C(CSc1ccc(-c2cccnc2)nn1)Nc1cccc(C(F)(F)F)c1
94

Another molecule: O=C(Nc1ccc2oc(-c3cccnc3)nc2c1)c1ncoc1-c1ccccc1Cl
116

###

biological target: CDK8-cyclin C (HsCDK8/Cyclin C) (Homo sapiens); assay: radiometric […]-ATP kinase assay, RBER-IRStide substrate
Sequence (P49336 whole entry): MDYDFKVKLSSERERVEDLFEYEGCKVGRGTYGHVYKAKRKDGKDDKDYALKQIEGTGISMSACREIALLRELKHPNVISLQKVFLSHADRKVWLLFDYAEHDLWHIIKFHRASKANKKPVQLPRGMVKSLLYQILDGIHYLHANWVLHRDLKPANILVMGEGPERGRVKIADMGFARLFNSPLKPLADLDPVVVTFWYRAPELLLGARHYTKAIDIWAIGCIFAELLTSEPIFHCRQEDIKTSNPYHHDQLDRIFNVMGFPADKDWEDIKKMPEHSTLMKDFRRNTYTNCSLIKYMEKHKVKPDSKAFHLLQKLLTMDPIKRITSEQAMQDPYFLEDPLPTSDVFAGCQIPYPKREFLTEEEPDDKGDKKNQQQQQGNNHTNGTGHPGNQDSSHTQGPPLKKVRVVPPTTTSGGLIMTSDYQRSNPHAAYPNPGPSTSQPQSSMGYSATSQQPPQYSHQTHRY
Sequence (P24863 whole entry partner): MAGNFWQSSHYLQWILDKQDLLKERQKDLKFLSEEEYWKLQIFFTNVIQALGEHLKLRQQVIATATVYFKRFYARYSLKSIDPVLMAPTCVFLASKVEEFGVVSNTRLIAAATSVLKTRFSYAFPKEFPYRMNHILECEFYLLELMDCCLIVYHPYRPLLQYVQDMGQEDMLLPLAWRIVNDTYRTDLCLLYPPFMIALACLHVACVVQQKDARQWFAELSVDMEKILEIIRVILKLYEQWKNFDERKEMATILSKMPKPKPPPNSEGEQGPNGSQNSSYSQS
pIC50: −log10 of the molar value.
EXPERIMENTAL ENDPOINT: pIC50

Solved cases (4 shown):
Record request: pIC50 value, item O=C(NC[C@H]1CC(=O)N(c2ccc3c(c2)OCO3)C1)Nc1cccc(C(F)(F)F)c1 [compound 75, #75]
7.30

Another compound: Cc1cccc(OCC(=O)Nc2ccc3oc(-c4cccnc4)nc3c2)c1C [compound 45, #45]
7.52

Another compound: O=C(NC[C@@H]1Cc2cc(-c3cncnc3)ccc2O1)c1scc2c1CCCC2 [compound 47, #47]
6.70

Another compound: N#Cc1ccc2ncnc(NCCc3ccccc3)c2c1 [Senexin A]
7.52

a = O=C(Nc1ccc2oc(-c3cccnc3)nc2c1)c1ncoc1-c1ccccc1Cl [compound 76, #76]
b = O=C(CSc1ccc(-c2cccnc2)nn1)Nc1cccc(C(F)(F)F)c1 [compound 9, #9]
c = Cc1ccc(NC(=O)Nc2ccc(Cc3ccncc3)cc2)cc1C [compound 82, #82]
d = O=C(Nc1ccc(Cc2ccncc2)cc1)Nc1cccc2ccccc12 [compound 22, #22]
Ascending by pIC50, please. Enter labels, ranked according to the request.
d, a, b, c
(d: 6.80, a: 7.00, b: 7.40, c: 8.30)

###

target: CDK2/cyclin A (Homo sapiens, UniProt P24941); test: biochemical; settings: read-out: % of control remaining
EXPERIMENTAL ENDPOINT: remaining activity at 10 µM (%)

Record request: remaining activity at 10 µM value, item O=C(NC[C@H]1CC(=O)N(c2ccc3c(c2)OCO3)C1)Nc1cccc(C(F)(F)F)c1 [compound 75, #75]
106

Another molecule: O=C(CSc1ccc(-c2cccnc2)nn1)Nc1cccc(C(F)(F)F)c1 [compound 9, #9]
78

Another molecule: Cc1cccc(OCC(=O)Nc2ccc3oc(-c4cccnc4)nc3c2)c1C [compound 45, #45]
82

Another molecule: N#Cc1ccc2ncnc(NCCc3ccccc3)c2c1 [Senexin A]
62

Another molecule: O=C(Nc1ccc(Cc2ccncc2)cc1)Nc1cccc2ccccc12 [compound 22, #22]
76

Another molecule: O=C(NC[C@@H]1Cc2cc(-c3cncnc3)ccc2O1)c1scc2c1CCCC2 [compound 47, #47]
81

1 = Cc1ccc(NC(=O)Nc2ccc(Cc3ccncc3)cc2)cc1C [compound 82, #82]
2 = O=C(Nc1ccc2oc(-c3cccnc3)nc2c1)c1ncoc1-c1ccccc1Cl [compound 76, #76]
Just tell me: smaller remaining activity at 10 µM value, 1 or 2 ? In your reply, give the label of the chosen option.
2
(2: 73%, 1: 120%)
